Just for reference, patent US8927500B2 is where these values come from.

Molecular target: MDMX (Homo sapiens)
Sequence (O15151 1-125): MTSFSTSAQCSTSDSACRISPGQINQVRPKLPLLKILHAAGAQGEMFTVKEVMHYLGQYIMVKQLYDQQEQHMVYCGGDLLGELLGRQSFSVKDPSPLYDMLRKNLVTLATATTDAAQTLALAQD
Assay: Competitive fluorescence polarization assay for MDMX
Type: binding
Settings: competitive FP assay, read-out: Ki (MDMX)
Where a SMILES comes first, the peptide text is derived from it. Bridges are numbered along the chain shown (N, C = ends). [ ]: non-standard residue; d: D form. R8 = C=CCCCCCC[C@@](C)(N)C(=O)O; S5 = C=CCCC[C@](C)(N)C(=O)O; Ac3c = NC1(C(=O)O)CC1; Aib = CC(C)(N)C(=O)O
READOUT_NAME: Ki

1. CC(=O)N[C@@H](Cc1ccccc1)C(=O)N[C@]1(C)CCCCCCC=CCCC[C@@](C)(C(=O)N[C@@H](C)C(=O)N[C@@H](C)C(=O)NC(C)(C)C(N)=O)NC(=O)[C@H](CC(C)C)NC(=O)C2(CC2)NC(=O)[C@H](CCC(=O)O)NC(=O)[C@H](Cc2c[nH]c3ccccc23)NC(=O)[C@H](Cc2ccc(O)cc2)NC(=O)[C@H](C)NC1=O [compound 22] (Ac-F[R8]AYWE[Ac3c]L[S5]AA[Aib]-NH2; staple 2-9): 10 to 100 nM
2. CC(=O)N[C@@H](CC(C)C)C(=O)N[C@H](C(=O)N[C@@H](Cc1ccccc1)C(=O)N[C@]1(C)CCCCCCC=CCCC[C@@](C)(C(=O)N[C@@H](CO)C(=O)N[C@H](C(=O)N[C@@H](CO)C(N)=O)C(C)C)NC(=O)[C@H](CC(C)C)NC(=O)[C@H](CCC(N)=O)NC(=O)[C@H](C)NC(=O)[C@H](Cc2c[nH]c3ccccc23)NC(=O)[C@H](Cc2ccc(O)cc2)NC(=O)[C@H](C)NC1=O)[C@@H](C)O [compound 121] (Ac-LTF[R8]AYWAQL[S5]SVS-NH2; staple 4-11): 10 to 100 nM
3. CCCC[C@H](NC(=O)[C@@H](C)NC(=O)[C@H](C)NC(=O)[C@]1(C)CCCC=CCCCCCC[C@@](C)(NC(=O)[C@H](Cc2ccccc2)NC(=O)[C@@H](NC(=O)[C@H](CC(C)C)NC(C)=O)[C@@H](C)O)C(=O)N[C@@H](C)C(=O)N[C@@H](Cc2ccc(O)cc2)C(=O)N[C@@H](Cc2c[nH]c3ccccc23)C(=O)N[C@@H](C)C(=O)N[C@@H](CCC(N)=O)C(=O)N[C@@H](CC(C)C)C(=O)N1)C(=O)N[C@@H](C)C(N)=O (single isomer, unassigned) [compound 394]: < 10 nM
